experiment: thallium flux activation in parental CHO cells, counter-screen for KCNQ1 potentiator project (AID 493006); settings: parental CHO-K1 cells, FluxOR thallium flux, at 10 µM;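 on activation: fluorescence ratio of max minus min over baseline after K+ and Tl+ depolarization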
Calls of active or inactive are those of the source.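 How the source made its calls: active means duplicate-averaged activation above buffer control mean plus 5 SD of those controls; inactive means the rest.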
Classes used: t for active, f for inactive

# COMPOUND, QUALITATIVE_LABEL
rows = [
    ("CCn1c(=S)[nH]c2scc(-c3cccs3)c2c1=O", "t"),
    ("Fc1ccc(/C=N/NC(=S)Nc2ccc(Cl)cc2)cc1F", "f"),
    ("Cc1csc(NC(=S)NC(=O)c2ccccc2)n1", "f"),
    ("COc1ccccc1C(=O)NNC(=O)c1nn(Cc2ccccc2)c(=O)c2ccccc12", "f"),
    ("CSc1nsc(SCC(=O)Nc2ccccc2)n1", "f"),
    ("O=C(Nc1cc([N+](=O)[O-])ccc1N1CCCC1)c1cccs1", "f"),
    ("C=CCSc1nc2sc3c(c2c(=O)n1CC)CCc1ccccc1-3", "t"),
    ("CCCc1cc2c(=O)c(-c3ccccn3)c(C)oc2cc1O", "f"),
    ("OC(CON=C1c2ccccc2-c2ccccc21)CN1CCNCC1 (centres undefined)", "f"),
    ("COc1ccc(-n2cc(CNC3CCN(C)CC3)c(-c3cccc(F)c3)n2)cc1", "t"),
    ("CCOC(=O)c1c(C)cccc1OCC(N)=O", "f"),
    ("CC(C)(C)CC(C)(C)NCC(O)COCCOc1ccc(Br)cc1 (centres undefined)", "f"),
    ("CC(C)Oc1cccc(C(=O)NC(=S)N2CCN(c3ccc(C(F)(F)F)cc3[N+](=O)[O-])CC2)c1", "f"),
    ("O=C(CCN1CCCCCC1)Nc1ccc(F)cc1", "f"),
    ("Cc1ccc(C)c(/C=C/C(=O)c2ccccc(=O)c2O)c1", "t"),
    ("COc1ccc(Cl)cc1N(C)C(=O)CCNC(=O)Cn1cnc2ccccc2c1=O", "f"),
    ("Oc1c(N=NC(=S)Nc2ccccc2F)c2ccccc2n1Cc1cccc(Cl)c1", "f"),
    ("COC1(c2ccccc2)NC(=S)NN=C1c1ccccc1 (centres undefined)", "f"),
    ("CON/C=N/C(=S)Nc1ncc(C(F)(F)F)cc1Cl", "t"),
    ("O=C(Nc1ccc2[nH]c(=S)sc2c1)Nc1ccccc1F", "t"),
    ("COc1cc(C2C(C#N)=C(N)Oc3cc(O)ccc32)cc2c1OCO2 (centres undefined)", "f"),
    ("CC(C)(C)C(=O)NC1CC2CCCC(C1)N2C(=O)Nc1ccccc1 (centres undefined)", "f"),
    ("COC(=O)c1ccc(COC(=O)c2ccccc2OC)cc1", "f"),
    ("COc1ccc(OC)c(Nc2cc3ccccc3c(=O)[nH]2)c1", "f"),
]

* * *

assay: thallium flux activation in parental CHO cells, counter-screen for KCNQ1 potentiator project (AID 493006); conditions: parental CHO-K1 cells, FluxOR thallium flux, at 10 µM;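 on activation: fluorescence ratio of max minus min over baseline after K+ and Tl+ depolarization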
Activity calls are given as the source filed them.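 How the source made its calls: active means duplicate-averaged activation above buffer control mean plus 5 SD of those controls; inactive means the rest.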
Classes used: active, inactive

# COMPOUND, QUALITATIVE_LABEL
measured = [
    ("COc1cccc(C2=NOC(C(=O)NCc3cccs3)C2)c1 (stereo unspecified)", "inactive"),
    ("Cc1ccc(S(=O)(=O)Nc2cc(C(F)(F)F)ccc2N2CCOCC2)c(C)c1", "inactive"),
    ("Cc1cccc(C(=O)NC(=S)N2CCc3ccccc3C2)c1", "active"),
    ("CCCn1nnnc1SCC(=O)c1ccc2c(c1)OCCO2", "inactive"),
    ("O=C(Nc1nnc(-c2ccc3c(c2)CCCC3)o1)c1c(F)cccc1F", "active"),
    ("CCOC(=O)N1CCC(NC(=O)c2cc(C(=O)NCc3ccc(F)cc3)ccc2CO)CC1", "inactive"),
    ("S=c1[nH]nc(-c2ccco2)n1/N=C/c1ccc(Br)s1", "inactive"),
    ("COc1cccc(C(=O)NC(=S)N2c3ccccc3CC2C)c1OC (stereo unspecified)", "inactive"),
    ("CCOC(=O)CC1=NS(=O)(=O)c2ccccc2N1", "inactive"),
    ("N#Cc1ccc(Cl)cc1NC(=O)COC(=O)[C@H](CCC(N)=O)NC(=O)c1ccc(F)cc1", "inactive"),
    ("COc1ccc(CCN(C)CC(O)COc2c(C)ccc(C)c2C)cc1OC (stereo unspecified)", "inactive"),
]

* * *

biological target: Potassium voltage-gated channel subfamily KQT member 1 (Homo sapiens); test: KCNQ1 channel current potentiators, confirmation, orthogonal assay for KCNQ1 potentiator project, IonWorks patch clamp, KCNQ1-CHO cells (AID 493184); conditions: automated patch clamp current, at 10 µM
Active and inactive are the calls of the source.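 Rule for the calls: active = current rise at least 3 SD above the untreated control mean in each of two repeat wells; inactive = the rest.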
Classes used: active, inactive

# COMPOUND, ASSAYED_SYSTEM, QUALITATIVE_LABEL
measured = [
    ("COc1ccc(-c2cc3nc(C)c(CCC(=O)NC(C)CCc4ccco4)c(C)n3n2)c(OC)c1 (stereo not drawn)", "Potassium voltage-gated channel subfamily KQT member 1 (Homo sapiens)", "inactive"),
    ("COc1ccc(NC(=O)[C@@H]2CC=C[C@@H]3CCN(C4CCCCC4)C(=O)[C@@H]32)cc1", "Potassium voltage-gated channel subfamily KQT member 1 (Homo sapiens)", "inactive"),
    ("CCCNC(=O)C(=O)N/N=C/c1cccs1", "Potassium voltage-gated channel subfamily KQT member 1 (Homo sapiens)", "inactive"),
    ("CCN(CC)CCCNC(=O)c1[nH]c2ccccc2c1Sc1ccc(Cl)cc1", "Potassium voltage-gated channel subfamily KQT member 1 (Homo sapiens)", "active"),
    ("CCCSC(=S)c1c(C)[nH]n(-c2ccccc2)c1=O", "Potassium voltage-gated channel subfamily KQT member 1 (Homo sapiens)", "inactive"),
    ("Cc1sc2nc(C(C)C)nc(SCC(=O)N3c4ccccc4CC3C)c2c1C (stereo not drawn)", "Potassium voltage-gated channel subfamily KQT member 1 (Homo sapiens)", "inactive"),
    ("NC(=O)NC(=O)C[n+]1cccc(/C=N/O)c1", "Potassium voltage-gated channel subfamily KQT member 1 (Homo sapiens)", "inactive"),
    ("O=C(NC(=S)Nc1nc2c(s1)CCCC2)c1ccccc1", "Potassium voltage-gated channel subfamily KQT member 1 (Homo sapiens)", "inactive"),
    ("C=CCn1c(=S)[nH]c2nc3c(cc2c1=O)CCCC3", "Potassium voltage-gated channel subfamily KQT member 1 (Homo sapiens)", "inactive"),
    ("CC(C)c1ccc(/C=N/n2c(COc3ccccc3)n[nH]c2=S)cc1", "Potassium voltage-gated channel subfamily KQT member 1 (Homo sapiens)", "inactive"),
    ("Cc1ccc(SCc2[nH]nc3c2C(c2ccco2)C(C#N)=C(N)O3)cc1 (stereo not drawn)", "Potassium voltage-gated channel subfamily KQT member 1 (Homo sapiens)", "inactive"),
    ("COc1cc(C(=O)Nc2ccc3c(c2)nc(C)n3C)cc(OC)c1OC", "Potassium voltage-gated channel subfamily KQT member 1 (Homo sapiens)", "inactive"),
    ("O=P(CCCCCCCCCP(=O)(c1ccccc1)c1ccccc1)(c1ccccc1)c1ccccc1", "Potassium voltage-gated channel subfamily KQT member 1 (Homo sapiens)", "inactive"),
    ("O=c1c2cccnc2n(-c2ccccc2)n1Cc1ccc(Cl)cc1", "Potassium voltage-gated channel subfamily KQT member 1 (Homo sapiens)", "inactive"),
    ("COc1ccc(C)cc1-n1c(C)cc(C=O)c1C", "Potassium voltage-gated channel subfamily KQT member 1 (Homo sapiens)", "inactive"),
    ("C/C(=N\\NC(=O)c1cccc(F)c1)c1ccc(Br)s1", "Potassium voltage-gated channel subfamily KQT member 1 (Homo sapiens)", "inactive"),
    ("COc1ccc(/C=C2\\SC(=Nc3ccccc3OC)NC2=O)cc1", "Potassium voltage-gated channel subfamily KQT member 1 (Homo sapiens)", "inactive"),
    ("Cn1c(=NC(=O)c2ccco2)sc2cccc(F)c21", "Potassium voltage-gated channel subfamily KQT member 1 (Homo sapiens)", "inactive"),
    ("CC(C1CC2CCC1C2)n1c(-c2ccco2)n[nH]c1=S (stereo not drawn)", "Potassium voltage-gated channel subfamily KQT member 1 (Homo sapiens)", "inactive"),
    ("COc1ccc(CNC(=O)CSc2nc3ccc(OC)cc3[nH]2)cc1", "Potassium voltage-gated channel subfamily KQT member 1 (Homo sapiens)", "inactive"),
    ("Cc1sc(N/N=C/c2ccco2)nc1-c1ccccc1", "Potassium voltage-gated channel subfamily KQT member 1 (Homo sapiens)", "inactive"),
    ("O=C(Nc1nc2c(Br)cc(Br)cc2c(=O)s1)C1CCC1", "Potassium voltage-gated channel subfamily KQT member 1 (Homo sapiens)", "inactive"),
    ("COc1ccc(/C=C(\\NC(=O)c2cccs2)C(=O)N2CCOCC2)cc1OC", "Potassium voltage-gated channel subfamily KQT member 1 (Homo sapiens)", "inactive"),
]

* * *

test: thallium flux activation in parental CHO cells, counter-screen for KCNQ1 potentiator project (AID 493006); conditions: parental CHO-K1 cells, FluxOR thallium flux, at 10 µM;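 on activation: fluorescence ratio of max minus min over baseline after K+ and Tl+ depolarization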
Active and inactive are the calls of the source.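 The calls were made as follows: active = duplicate-averaged activation above buffer control mean plus 5 SD of those controls; inactive = the rest.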
Classes used: class 1 (active), class 0 (inactive)

# MOLECULE, QUALITATIVE_LABEL
rows = [
    ("CC(C)(C)NCC(O)CON=C1c2ccccc2-c2ccccc21 (stereo not drawn)", "class 0"),
    ("Cc1sc(NC(=O)CS(=O)(=O)c2ccccc2)c(C#N)c1C", "class 0"),
    ("Cc1cccc(/C=C/C(=O)c2cc(Br)ccc(=O)c2O)c1", "class 1"),
    ("CCCc1cc(=O)n2[nH]cc(-c3ccc(Cl)cc3)c2n1", "class 1"),
    ("COc1cc(/C=C2\\C(=O)N(C)C(=S)N2C)ccc1O", "class 0"),
    ("O=C(c1cc(COc2ccc3ncccc3c2)on1)N1CCCC(O)C1 (stereo not drawn)", "class 0"),
    ("N=c1sccn1CC(=O)Nc1ccc(S(=O)(=O)N2CCOCC2)cc1", "class 0"),
    ("Cc1ccc(C(=O)OCC(=O)NCCC2=CCCCC2)s1", "class 0"),
    ("COc1ccc(/C=C2\\SC(=O)NC2=S)cc1OC", "class 1"),
    ("CCC(=O)Nc1cc(-c2nn3c(C)nnc3s2)ccc1C", "class 0"),
    ("CCOc1cc(CN2CCN(C(=O)CC(C)C)CC2)ccc1OC", "class 0"),
    ("O=C(O)CCC(=O)Nc1ccc(-c2nc3ccc(C(=O)c4ccccc4)cc3[nH]2)cc1", "class 0"),
    ("OCCN(CCO)c1ccc(C(c2ccccc2Cl)c2ccc(N(CCO)CCO)cc2Cl)c(Cl)c1", "class 0"),
    ("Cc1ccc(OCCCC(=O)NCc2ccco2)c(C)c1", "class 0"),
    ("C=CCn1c(O)c(N=NC(=S)Nc2ccc(OC)cc2)c2ccccc21", "class 0"),
    ("CC(C)C(=O)Nc1c(-c2ccccc2F)c(=O)c2ccccc2n1C", "class 0"),
    ("O=C(NC(=S)Nc1ccccc1N1CCOCC1)c1ccc(-c2cc(Cl)ccc2Cl)o1", "class 0"),
    ("CSc1ccc(/C=N/NC(=O)c2cccs2)cc1", "class 0"),
    ("COc1ccc(N2CCN(C(=O)COC(=O)/C=C/c3ccc(OC(F)F)cc3)CC2)cc1", "class 1"),
    ("O=C(NC(=S)Nc1ccccc1N1CCCCC1)c1ccc(F)cc1Cl", "class 0"),
    ("COc1ccc(CCNC(=O)CC(=O)N/N=C/c2ccc(Br)cc2)cc1OC", "class 0"),
    ("CCOc1ccc(CCNC(=O)CSc2nc3ncc(Cl)cc3[nH]2)cc1OCC", "class 0"),
    ("CCCC(=O)Nc1cc(Cl)ccc1N1CCN(C(=O)CC)CC1", "class 0"),
]
